# measured target: UniProt:P03482
# Sequence (P03482 whole entry, looked up): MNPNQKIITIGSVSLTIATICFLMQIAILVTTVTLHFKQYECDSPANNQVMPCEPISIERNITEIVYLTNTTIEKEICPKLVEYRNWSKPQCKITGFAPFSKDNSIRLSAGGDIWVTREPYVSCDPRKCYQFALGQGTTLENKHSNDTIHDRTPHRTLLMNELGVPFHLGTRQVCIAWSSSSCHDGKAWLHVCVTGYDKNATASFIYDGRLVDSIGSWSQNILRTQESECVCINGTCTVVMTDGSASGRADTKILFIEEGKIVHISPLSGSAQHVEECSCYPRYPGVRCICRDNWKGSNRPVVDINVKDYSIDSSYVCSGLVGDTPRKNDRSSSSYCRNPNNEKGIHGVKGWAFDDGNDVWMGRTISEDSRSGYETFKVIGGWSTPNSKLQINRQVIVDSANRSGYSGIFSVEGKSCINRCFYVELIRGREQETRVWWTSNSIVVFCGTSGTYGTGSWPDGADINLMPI
readout label: Ki (µM)
Hi! Could you send only the number? It should be in µM, unit omitted.

Data request: Form: Entry = CC(=O)N[C@@H]1CCC(O)(C(=O)O)O[C@H]1[C@H](O)[C@H](O)CO (stereo partly shown) | System = UniProt:P03482 | Ki = ____
Data returned: 2200

###

# measured target: Influenza B neuraminidase (Influenza B virus, UniProt P03474)
# Sequence (P03474 whole entry, looked up): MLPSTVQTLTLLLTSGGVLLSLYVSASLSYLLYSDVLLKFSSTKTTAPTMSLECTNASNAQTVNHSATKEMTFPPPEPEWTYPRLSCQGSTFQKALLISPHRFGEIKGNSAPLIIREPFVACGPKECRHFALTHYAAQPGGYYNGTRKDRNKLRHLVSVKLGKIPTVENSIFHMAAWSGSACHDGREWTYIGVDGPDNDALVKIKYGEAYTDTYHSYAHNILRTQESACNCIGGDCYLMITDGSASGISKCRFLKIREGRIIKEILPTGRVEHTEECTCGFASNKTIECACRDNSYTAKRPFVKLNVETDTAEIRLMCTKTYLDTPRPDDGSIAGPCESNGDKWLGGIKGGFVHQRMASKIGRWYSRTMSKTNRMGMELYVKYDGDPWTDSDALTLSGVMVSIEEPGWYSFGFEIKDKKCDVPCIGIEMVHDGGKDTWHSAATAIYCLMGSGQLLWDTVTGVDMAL
readout label: pKi
Kindly note that pKi refers to -log10 of the concentration in mol/L and answer with the value alone.

Data request: Form: Entry = CC(=O)N[C@@H]1CCC(O)(C(=O)O)O[C@H]1[C@H](O)[C@H](O)CO (stereo partly shown) | System = Influenza B neuraminidase (Influenza B virus, UniProt P03474) | pKi = ____
Data returned: 2.98

###

Each item that follows carries a reported Ki.
# measured target: Influenza A (H1N1) neuraminidase (Influenza A virus, UniProt P03468)
# Sequence (P03468 whole entry, looked up): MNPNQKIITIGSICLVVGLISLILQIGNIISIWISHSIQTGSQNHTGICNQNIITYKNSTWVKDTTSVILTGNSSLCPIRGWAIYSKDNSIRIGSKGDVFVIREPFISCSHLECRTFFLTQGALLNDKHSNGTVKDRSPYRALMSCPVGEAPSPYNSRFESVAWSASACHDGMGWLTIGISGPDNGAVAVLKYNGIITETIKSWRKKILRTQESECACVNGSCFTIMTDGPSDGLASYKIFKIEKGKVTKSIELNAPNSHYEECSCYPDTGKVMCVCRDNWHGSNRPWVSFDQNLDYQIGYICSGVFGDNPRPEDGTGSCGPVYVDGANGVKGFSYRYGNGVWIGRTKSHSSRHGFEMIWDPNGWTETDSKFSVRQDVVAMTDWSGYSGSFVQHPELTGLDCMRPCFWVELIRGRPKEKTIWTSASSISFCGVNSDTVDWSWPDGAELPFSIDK
Hi! Could you send only the number? It should be in µM, unit omitted.

Data request: Form: Entry = CC(=O)N[C@H]1[C@H]([C@H](O)[C@H](O)CO)OC(O)(C(=O)O)C[C@@H]1O (some centres unmarked) [Neu5Ac, N-acetylneuraminic acid] | System = Influenza A (H1N1) neuraminidase (Influenza A virus, UniProt P03468) | Ki = ____
Data returned: 626

Moving on to another molecule below.
Data request: Form: Entry = CC(=O)N[C@@H]1CCC(O)(C(=O)O)O[C@H]1[C@H](O)[C@H](O)CO (some centres unmarked) [4-deoxy Neu5Ac, 4-deoxy-N-acetylneuraminic acid] | System = Influenza A (H1N1) neuraminidase (Influenza A virus, UniProt P03468) | Ki = ____
Data returned: 998
